Assayed Target: T1, mouse tissue factor pathway inhibitor (TFPI) (mouse, UniProt O54819 29-289, limits assumed)
T1 construct: bought; also called mTFPI; murine TFPI
T1 sequence (looked up): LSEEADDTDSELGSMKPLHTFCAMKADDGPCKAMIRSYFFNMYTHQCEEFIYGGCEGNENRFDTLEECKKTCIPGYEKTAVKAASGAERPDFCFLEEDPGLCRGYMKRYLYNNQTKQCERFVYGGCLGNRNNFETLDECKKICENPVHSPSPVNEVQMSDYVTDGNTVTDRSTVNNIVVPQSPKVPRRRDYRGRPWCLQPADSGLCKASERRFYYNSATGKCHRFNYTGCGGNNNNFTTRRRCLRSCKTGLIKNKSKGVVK
Procedure Summary: SPR, TFPI immobilized
Each entry below lists one item and its recorded koff value.
# number only, unit s⁻¹ dropped from output

- Binder: "gB9.7-IgG (4B7 HC N32D+G44S+K55Y+D62R+Y112D/LC S32R+N35I) (antibody, V domains shown, IgG format by its name) VH: QVQLQQSGPGLVKPSQTLSLTCAISGDSVSSDSAAWSWIRQSPSRGLEWLGIIYYRSKWYNRYAVSVKSRITINPDTSKNQFSLQLNSVTPEDTAVYYCARWHSDKHWGFDDWGQGTLVTVSS VL: DIVMTQSPLSLPVTPGEPASISCRSSQSLVFRDGITYLNWYLQKPGQSPQLLIYKGSNRASGVPDRFSGSGSGTDFTLKISRVEAEDVGVYYCQQYDSYPLTFGQGTKVEIKR"
  koff (s⁻¹): "2.36e-05"

// switching to the query binder
// B2.0 (4B7 HC N32D+D62R+Y112D/LC S32R+D33F+N35I+D97T) (Fab, V domains shown) VH: QVQLQQSGPGLVKPSQTLSLTCAISGDSVSSDSAAWSWIRQSPGRGLEWLGIIYKRSKWYNRYAVSVKSRITINPDTSKNQFSLQLNSVTPEDTAVYYCARWHSDKHWGFDDWGQGTLVTVSS VL: DIVMTQSPLSLPVTPGEPASISCRSSQSLVFRFGITYLNWYLQKPGQSPQLLIYKGSNRASGVPDRFSGSGSGTDFTLKISRVEAEDVGVYYCQQYTSYPLTFGQGTKVEIKR : koff value = 0.000315
